From: ChEMBL document CHEMBL4665853

Below, each entry is listed alongside its reported Kd.
Target: Macrophage migration inhibitory factor (Homo sapiens, UniProt P14174)
Sequence (P14174 whole entry): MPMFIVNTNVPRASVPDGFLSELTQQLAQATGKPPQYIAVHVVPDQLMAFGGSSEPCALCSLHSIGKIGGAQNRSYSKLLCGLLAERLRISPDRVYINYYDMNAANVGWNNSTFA
Assay: Binding affinity to recombinant biotinylated human MIF expressed in Escherichia coli BL21 DE3 by surface plasmon resonance assay
readout_label: Kd

# line_notation, assayed_system, readout_label, value_reported
records = [
    ("CC(C)C(=O)c1c(C(C)C)nn2ccccc12", "Macrophage migration inhibitory factor (Homo sapiens, UniProt P14174)", "Kd", "1.4 µM"),
    ("CC(C)C(=O)c1c(Cc2cccc(/N=N/c3ccc4c(S(=O)(=O)O)cc(S(=O)(=O)O)c(N)c4c3O)c2)nn2ccccc12", "Macrophage migration inhibitory factor (Homo sapiens, UniProt P14174)", "Kd", "6.86 µM"),
]

###

Target: Macrophage migration inhibitory factor (Homo sapiens)
Experiment: Inhibition of recombinant human MIF expressed in Escherichia coli BL21 DE3 binding to recombinant soluble human CD74 receptor ectodomain (73 to 232 residues) expressed in Escherichia coli BL21 (DE3) pLysS using p-nitrophenyl phosphate as substrate by ELISA

# line_notation, IC50
records = [
    ("CC(C)C(=O)c1c(Cc2cccc(/N=N/c3ccc4c(S(=O)(=O)O)cc(S(=O)(=O)O)c(N)c4c3O)c2)nn2ccccc12", "930 nM"),
]
